# Assay Protocol: Antiviral activity against HIV protease in absence of human serum
pEC50: −log10 of the molar value.
Experimental Readout: pEC50

Given Smiles: CCCCN1C(=O)N(Cc2cccc(C(=N)NO)c2)[C@H](Cc2ccccc2)[C@H](O)CN1S(=O)(=O)c1cccc(OC)c1
Val: 7.52
